Read-out: Matrix Metallopeptidase 9 (MMP9), MMP9 (gene 4318)
protocolNotes: BSK_KF3CT_MMP9: BioMAP Diversity Plus: KF3CT Assay for Matrix Metallopeptidase 9 (MMP9) Biomarker Activity (AID 2283074)
conditionSet: primary human keratinocytes with fibroblasts; actives raise or lower the signal
Protocol: BSK_KF3CT is a cell-based, multiplexed-readout assay that uses keratinocytes and foreskin fibroblasts, a human skin primary cell co-culture, with measurements taken at 24 hours after chemical dosing in a 96-well plate.BSK_KF3CT_MMP9 is an assay component measured in the BSK_KF3CT assay. It measures MMP-9 antibody related to regulation of gene expression using ELISA technology.Data from the assay component BSK_KF3CT_MMP9 was analyzed into 1 assay endpoint. […]
The source made the active and inactive calls. The calls were made as follows: active = hit-call score of the fitted dose curve at least 0.9, where 1 is the maximum; inactive = score below 0.9.
Outcomes: active, inactive

CCOP(=S)(OCC)SCn1c(=O)oc2cc(Cl)ccc21; inactive
O=C(Nc1ccccc1)Nc1ccnc(Cl)c1; inactive
C#CCOS(=O)OC1CCCCC1Oc1ccc(C(C)(C)C)cc1 (configuration not stated); active
CC(C)(C)c1ccc(CSc2cnn(C(C)(C)C)c(=O)c2Cl)cc1; active
N#CC(CCc1ccc(Cl)cc1)(Cn1cncn1)c1ccccc1 (configuration not stated); inactive
C=CCC1=C(C)[C@@H](OC(=O)[C@@H]2[C@@H](C=C(C)C)C2(C)C)CC1=O; active
CCOc1cc(Oc2ccc(C(F)(F)F)cc2Cl)ccc1[N+](=O)[O-]; inactive
CCCCC(CC)COC(=O)c1ccccc1C(=O)OCC(CC)CCCC (configuration not stated); inactive
CS/C(C)=N/OC(=O)N(C)SN(C)C(=O)O/N=C(\C)SC; active
COP(N)(=O)SC (configuration not stated); inactive
CCOC(=O)CC(SP(=S)(OC)OC)C(=O)OCC (configuration not stated); inactive
N#Cc1nn(-c2c(Cl)cc(C(F)(F)F)cc2Cl)c(N)c1S(=O)C(F)(F)F (configuration not stated); inactive
O=C(O)c1nc(Cl)ccc1Cl; inactive
CCCCNC(=O)n1c(NC(=O)OC)nc2ccccc21; inactive
CCc1nn(C)c(C(=O)NCc2ccc(C(C)(C)C)cc2)c1Cl; active
CC(C)Oc1cc(-n2nc(C(C)(C)C)oc2=O)c(Cl)cc1Cl; active
OC(c1ccc(Cl)cc1)(c1cncnc1)c1ccccc1Cl (configuration not stated); inactive
COc1cnc(OC)n2nc(NS(=O)(=O)c3c(OCC(F)F)cccc3C(F)(F)F)nc12; inactive
CC1COC(Cn2cncn2)(c2ccc(Oc3ccc(Cl)cc3)cc2Cl)O1 (configuration not stated); active
Fc1ccc(Oc2ccnc3cc(Cl)cc(Cl)c23)cc1; active
CCCC1COC(Cn2cncn2)(c2ccc(Cl)cc2Cl)O1 (configuration not stated); inactive
CC(C)C1(C)N=C(c2nc3ccccc3cc2C(=O)O)NC1=O (configuration not stated); inactive
O=C(O)COc1nc(Cl)c(Cl)cc1Cl; inactive
Cc1c(F)c(F)c(COC(=O)C2C(/C=C(\Cl)C(F)(F)F)C2(C)C)c(F)c1F (configuration not stated); active
CCNc1nc(Cl)nc(NC(C)C)n1; inactive
CCCCOC(=O)c1ccccc1C(=O)OCCCC; inactive
CCOC(=O)C(Cl)Cc1cc(-n2nc(C)n(C(F)F)c2=O)c(F)cc1Cl (configuration not stated); inactive
C=CCC1=C(C)C(OC(=O)C2C(C=C(C)C)C2(C)C)CC1=O (configuration not stated); active
Cc1ccc(-c2c(Cl)nc(C#N)n2S(=O)(=O)N(C)C)cc1; active
CNC(=S)S; inactive
Cc1cc(Cl)ccc1OCC(=O)O; inactive
COC(=O)C=C(C)OP(=O)(OC)OC; inactive
